Data origin, for the record: the supplement of paper PMC10899765

tested on: MCF10A; experiment: one-nucleolus phenotype percent effect (relative to siNT 0% and siNOL11 100%); higher = more cells with one nucleolus (ribosome biogenesis inhibition); conditions: 20 nM; 72 h
Please enter 1 where one-nucleolus phenotype percent effect is greater than or equal to 20%, and -1 where it is lower.

Examples from the recorded data:
[
  {
    "Record Sequence": "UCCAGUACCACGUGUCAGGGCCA [hsa-miR-770-5p]",
    "Cat": 1
  },
  {
    "Record Sequence": "GGGAGUCUACAGCAGGG [hsa-miR-4294]",
    "Cat": 1
  },
  {
    "Record Sequence": "CAUCAGCACCCUAUGUCCUUUCU [hsa-miR-3617-3p]",
    "Cat": 1
  },
  {
    "Record Sequence": "UCCUGUCUUUCCUUGUUGGAGC [hsa-miR-5699]",
    "Cat": -1
  },
  {
    "Record Sequence": "GAGGGCAGCGUGGGUGUGGCGGA [hsa-miR-4632-5p]",
    "Cat": -1
  }
]

Confirm if one-nucleolus phenotype percent effect reported for the sequence ACCUGGCAGCAGGGAGCGUCGU [hsa-miR-8073] is 20% or above.
1

Does one-nucleolus phenotype percent effect meet or surpass 20% for AGGCGGAGACUUGGGCAAUUG [hsa-miR-25-5p] ?
1

Kindly determine if one-nucleolus phenotype percent effect recorded for UUGCCAUGUCUAAGAAGAA [hsa-miR-4659b-5p] is above or exactly 20%.
1

Please tell me: is the sequence ACACAGUGCUUCAUCCACUACU [hsa-miR-3681-3p] at or over 20% in terms of one-nucleolus phenotype percent effect?
-1

Please check the record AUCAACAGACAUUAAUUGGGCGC [hsa-miR-421] and state if its one-nucleolus phenotype percent effect is at or above 20%.
1
